target: Tubulin; assay: Inhibition of tubulin (unknown origin) assembly pre-incubated for 15 mins before GTP addition measured after 20 mins by turbidimetry
Please go through the items and note down their IC50.
Please respond with the number in nM and leave the unit unwritten.

Q: Any idea what IC50 was measured for `COc1ccc2c(c1)CCCN2c1ncnc2ccccc12` ?
Ans: 1300

Q: Any idea what IC50 was measured for `COc1ccc2c(c1)CCCN2c1cncc2ccccc12` ?
Ans: 3300

Q: Any idea what IC50 was measured for `COc1ccc2c(c1)CCCN2c1nc(NC2CC2)nc2ccccc12` ?
Ans: 1300

Q: Any idea what IC50 was measured for `COc1ccc2c(c1)CCCN2c1nccc2ccccc12` ?
Ans: 2600

Q: Any idea what IC50 was measured for `COc1ccc2c(c1)CCCN2c1nc(NC2CCCC2)nc2ccccc12` ?
Ans: 5700

Q: Any idea what IC50 was measured for `COc1ccc2c(c1)CCCN2c1nc(NCCCO)nc2ccccc12` ?
Ans: 850

---

molecular target: Tubulin (Homo sapiens) (UniProt P68371+Q9H4B7+P0DPH7+P68366+Q13509+Q71U36+P04350+Q3ZCM7+P07437+P68363+Q9BQE3+Q6PEY2+Q13885+Q9BVA1+Q9BUF5); test: Displacement of [3H]-colchicine from tubulin (unknown origin) at 5 uM after 10 mins; type: protein-complex assay
Please go through the items and note down their inhibition.
Please respond with the number in % and leave the unit unwritten.

Q: Any idea what inhibition was measured for `COc1ccc2c(c1)CCCN2c1nc(NC2CC2)nc2ccccc12` ?
Ans: 89

Q: Any idea what inhibition was measured for `COc1ccc2c(c1)CCCN2c1nc(NCCCO)nc2ccccc12` ?
Ans: 78

Q: Any idea what inhibition was measured for `COc1ccc2c(c1)CCCN2c1ncnc2ccccc12` ?
Ans: 91

Q: Any idea what inhibition was measured for `COc1ccc2c(c1)CCCN2c1nc(NC2CCCC2)nc2ccccc12` ?
Ans: 29

Q: Any idea what inhibition was measured for `COc1ccc2c(c1)CCCN2c1nccc2ccccc12` ?
Ans: 37

Q: Any idea what inhibition was measured for `COc1ccc2c(c1)CCCN2c1cncc2ccccc12` ?
Ans: 39
